# target: Adrenergic receptor alpha-1 (Rattus norvegicus) (UniProt P15823+P23944+P43140)
# protocol text: Antagonistic activity against alpha-1 adrenergic receptor in rat cerebral cortex using [3H]prazosin as radioligand.
# Type: functional, tissue-based
readout kind: K2 (nM)

{"columns": ["compound", "numeric readout"],
 "data": [
  ["CCCCOc1ccccc1N1CCN(CCCN2CC(=O)N3CCCCC3C2=O)CC1 (stereo unspecified)", 13],
  ["CCCCOc1ccccc1N1CCN(CCCCN2C(=O)C3CCCCN3C2=O)CC1 (stereo unspecified)", 5],
  ["N#Cc1ccccc1N1CCN(CCCCN2C(=O)C3CCCN3C2=O)CC1 (stereo unspecified)", 4.9]
]}

1: O=C1C2CCCCN2C(=O)N1CCCCN1CCN(c2cccc(Br)c2)CC1 (stereo unspecified)
2: N#Cc1ccccc1N1CCN(CCCN2CC(=O)N3CCCC3C2=O)CC1 (stereo unspecified)
3: Cc1ccccc1N1CCN(CCCCN2CC(=O)N3CCCC3C2=O)CC1 (stereo unspecified)
# ascending order, key=K2 Hello, could you send the labels back in the order asked? Thank you.
1, 2, 3
(1: 5.9 nM, 2: 17 nM, 3: 25 nM)
